Quick reference for phosphorylation enrichment among some sequences
assayed system: Fes (UniProt P07332)
Sequence (P07332 whole entry, looked up): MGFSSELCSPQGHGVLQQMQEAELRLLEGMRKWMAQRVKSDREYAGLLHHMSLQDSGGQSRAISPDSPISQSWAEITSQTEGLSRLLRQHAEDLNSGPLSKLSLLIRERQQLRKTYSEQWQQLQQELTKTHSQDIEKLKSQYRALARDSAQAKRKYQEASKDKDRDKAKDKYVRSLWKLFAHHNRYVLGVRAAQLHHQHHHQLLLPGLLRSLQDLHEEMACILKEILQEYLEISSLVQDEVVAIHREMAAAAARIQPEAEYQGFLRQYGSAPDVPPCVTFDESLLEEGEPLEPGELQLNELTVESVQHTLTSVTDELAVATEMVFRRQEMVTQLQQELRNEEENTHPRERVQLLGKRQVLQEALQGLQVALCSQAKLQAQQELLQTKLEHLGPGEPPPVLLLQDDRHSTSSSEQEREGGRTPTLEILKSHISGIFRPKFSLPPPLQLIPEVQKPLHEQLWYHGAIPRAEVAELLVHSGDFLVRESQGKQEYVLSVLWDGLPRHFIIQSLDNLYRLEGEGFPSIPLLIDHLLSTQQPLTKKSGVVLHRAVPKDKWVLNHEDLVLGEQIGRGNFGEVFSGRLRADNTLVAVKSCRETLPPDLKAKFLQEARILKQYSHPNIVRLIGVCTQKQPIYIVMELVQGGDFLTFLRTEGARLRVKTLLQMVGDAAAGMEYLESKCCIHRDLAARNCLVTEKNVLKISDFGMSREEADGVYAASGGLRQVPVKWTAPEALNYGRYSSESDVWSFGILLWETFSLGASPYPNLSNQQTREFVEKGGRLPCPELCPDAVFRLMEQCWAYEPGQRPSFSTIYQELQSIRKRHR
assay details: phosphorylation enrichment, bacterial display (enrichment ratio); higher = better substrate or ligand; peptides without Tyr show the background;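 also: 11-residue human phosphosite peptides and single-mutation variants displayed on the E. coli surface, counted by deep sequencing, each peptide's frequency after selection divided by its frequency in the unselected input library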;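 also: frequency after pTyr selection over input frequency; kinase dosed for 20-30% of maximal phosphorylation in three min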
reported metric: phosphorylation enrichment

[
  {
    "construct sequence": "MSRNLYSGDFF [DDR2_Y736_YF]",
    "reported metric": "phosphorylation enrichment",
    "observed result": 0.98
  },
  {
    "construct sequence": "AIYEGYALPHA [ACTC1_Y171_P166A]",
    "reported metric": "phosphorylation enrichment",
    "observed result": 1.37
  },
  {
    "construct sequence": "SVVVPYESPEV [TP53_Y220_P222S]",
    "reported metric": "phosphorylation enrichment",
    "observed result": 1.13
  },
  {
    "construct sequence": "NPQKSYFIRLY [WAS_Y83]",
    "reported metric": "phosphorylation enrichment",
    "observed result": 1.15
  },
  {
    "construct sequence": "SAPDSYIGIGN [SLC38A4_Y27]",
    "reported metric": "phosphorylation enrichment",
    "observed result": 0.742
  },
  {
    "construct sequence": "QKLPSYILENN [VPS13B_Y2774]",
    "reported metric": "phosphorylation enrichment",
    "observed result": 1.94
  },
  {
    "construct sequence": "PGVDRYSLGTS [C5orf42_Y1451]",
    "reported metric": "phosphorylation enrichment",
    "observed result": 0.973
  },
  {
    "construct sequence": "PKSWNYELPAT [PROM1_Y34_A31S]",
    "reported metric": "phosphorylation enrichment",
    "observed result": 1.45
  },
  {
    "construct sequence": "KSEMSYIDGEK [SORBS1_Y485]",
    "reported metric": "phosphorylation enrichment",
    "observed result": 0.848
  },
  {
    "construct sequence": "FTRNYYVQAVL [CYBA_Y88_R90Q]",
    "reported metric": "phosphorylation enrichment",
    "observed result": 0.981
  },
  {
    "construct sequence": "LAETSYVTVLE [MAGEA1_Y276_K278T]",
    "reported metric": "phosphorylation enrichment",
    "observed result": 1.65
  },
  {
    "construct sequence": "LQTYRYHGHSM [PDHA1_Y289]",
    "reported metric": "phosphorylation enrichment",
    "observed result": 0.513
  },
  {
    "construct sequence": "TEDAEYDVQSK [PTCHD3_Y335_P333A]",
    "reported metric": "phosphorylation enrichment",
    "observed result": 1.14
  },
  {
    "construct sequence": "SKDSAYVTWEP",
    "reported metric": "phosphorylation enrichment",
    "observed result": 0.971
  },
  {
    "construct sequence": "MFCAGYDTKQE [F10_Y407]",
    "reported metric": "phosphorylation enrichment",
    "observed result": 1.47
  },
  {
    "construct sequence": "SVSVNYGDQVQ [GRAP_Y101]",
    "reported metric": "phosphorylation enrichment",
    "observed result": 0.902
  },
  {
    "construct sequence": "QCTSDYPEHVC [SART3_Y541]",
    "reported metric": "phosphorylation enrichment",
    "observed result": 1.44
  },
  {
    "construct sequence": "TSPKSCPSQKH [CAP2_Y316_Y316C]",
    "reported metric": "phosphorylation enrichment",
    "observed result": 0.619
  },
  {
    "construct sequence": "FRDMDYRSFPH [RBM10_Y41_R46H_YF]",
    "reported metric": "phosphorylation enrichment",
    "observed result": 0.698
  },
  {
    "construct sequence": "QEALEYFMKQV [PIK3CA_Y1038_M1043V]",
    "reported metric": "phosphorylation enrichment",
    "observed result": 0.978
  },
  {
    "construct sequence": "ANSPVYVPTTR [GATA6_Y188_S184N]",
    "reported metric": "phosphorylation enrichment",
    "observed result": 0.667
  },
  {
    "construct sequence": "ECKFLYSRKEG [PTPN11_Y263_L261F]",
    "reported metric": "phosphorylation enrichment",
    "observed result": 0.939
  },
  {
    "construct sequence": "DLLNSYTENEG [HSPA4L_Y600_I601T]",
    "reported metric": "phosphorylation enrichment",
    "observed result": 1.24
  },
  {
    "construct sequence": "DDKEYYSVHNK [MET_Y1235_Y1230D]",
    "reported metric": "phosphorylation enrichment",
    "observed result": 1.06
  },
  {
    "construct sequence": "PPSGEYFGHCG [TRIP6_Y275_Q278H]",
    "reported metric": "phosphorylation enrichment",
    "observed result": 1.38
  }
]
